Recorded values, source paper PMC9597602.

In this section, each of the compounds is paired with its reported RBC HC10.
Test system: human red blood cells
Assay type: cell-based
Settings: initial CO-ADD screening, 1 h; 10% hemolysis
experimental endpoint: RBC HC10

[[record]]
compound = "CC1=CC=CC2=C(c3ccccc3)[C](=[Au]([Cl])([Cl])[Cl])C(c3ccccc3)(c3cccc(C)n3)N12 (centres unmarked)"
experimental_endpoint = "RBC HC10"
test_result = "19.3 µg/mL"

[[record]]
compound = "O=[N+]([O-])[O-].[Ag+] [AgNO3, reference compound]"
experimental_endpoint = "RBC HC10"
test_result = "8.9 µg/mL"

[[record]]
compound = "Cc1cccc(C2(c3ccccc3)[C]([Au-][Cl])=C(C(C)(C)C)c3cccc(C)[n+]32)n1 (centres unmarked)"
experimental_endpoint = "RBC HC10"
test_result = "> 32 µg/mL"

[[record]]
compound = "C1=CCCC=CCC1.[Cl][Pt][Cl]"
experimental_endpoint = "RBC HC10"
test_result = ">20 µM"

[[record]]
compound = "O=C([O][Eu]([O]C(=O)c1ccc(F)cc1F)[O]C(=O)c1ccc(F)cc1F)c1ccc(F)cc1F.c1cnc2c(c1)ccc1cccnc12"
experimental_endpoint = "RBC HC10"
test_result = "0.5 µM"

[[record]]
compound = "O=C([O][Eu]([O]C(=O)c1ccc(F)cc1F)[O]C(=O)c1ccc(F)cc1F)c1ccc(F)cc1F.c1ccc(-c2ccnc3c2ccc2c(-c4ccccc4)ccnc23)cc1"
experimental_endpoint = "RBC HC10"
test_result = "0.7 µM"

[[record]]
compound = "Cc1cccc2[n+]1[Au-]([Cl])([Cl])[n+]1c(C)cccc1C(c1ccccc1)=C=C2c1ccccc1.[Cl-]"
experimental_endpoint = "RBC HC10"
test_result = "> 32 µg/mL"

[[record]]
compound = "Cc1cccc(C2(c3ccccc3)[C]([Au-][Cl])=C(c3ccccc3)c3cccc(C)[n+]32)n1 (centres unmarked)"
experimental_endpoint = "RBC HC10"
test_result = "23.7 µg/mL"

[[record]]
compound = "CC(C)C([O][Pt][Cl])C1=CCCC=CCC1 (centres unmarked)"
experimental_endpoint = "RBC HC10"
test_result = ">20 µM"

[[record]]
compound = "Cc1c(C)c(-c2ccc(-c3ccccc3)cc2)[c-](C)c1C.Cc1ccccc1NC1=[NH+][Ir]([Cl])[NH]C(NS(=O)(=O)c2ccc([N+](=O)[O-])cc2)=N1"
experimental_endpoint = "RBC HC10"
test_result = ">32 µg/mL"

[[record]]
compound = "O=C([O][Eu]([O]C(=O)c1cc(F)ccc1F)[O]C(=O)c1cc(F)ccc1F)c1cc(F)ccc1F.c1ccc(-c2ccnc3c2ccc2c(-c4ccccc4)ccnc23)cc1"
experimental_endpoint = "RBC HC10"
test_result = "> 20 µM"

[[record]]
compound = "Cc1ccc2ccc3ccc(C)nc3c2n1.Cc1ccc2ccc3ccc(C)nc3c2n1.O=C([O][Eu]([O]C(=O)c1ccccc1F)[O]C(=O)c1ccccc1F)c1ccccc1F"
experimental_endpoint = "RBC HC10"
test_result = ">20 µM"

[[record]]
compound = "Cc1cccc2[n+]1[Pd-2]([Cl])([Cl])[n+]1c(C)cccc1C(C(C)(C)C)=C=C2c1ccccc1"
experimental_endpoint = "RBC HC10"
test_result = "> 32 µg/mL"

[[record]]
compound = "Nc1cc2cccnc2c2ncccc12.O=C([O][Eu]([O]C(=O)c1ccccc1F)[O]C(=O)c1ccccc1F)c1ccccc1F"
experimental_endpoint = "RBC HC10"
test_result = "1.2 µM"

